Experiment: Selectivity index, ratio of IC50 for human THP1 cells to IC50 for axenic amastigote stage of Leishmania infantum
Type: toxicity, cell-based, THP-1
Conditions: read-out: Ratio IC50
Measured selectivity ratio, listed per entry.
Give a plain numeric answer without units written out.

Solved entries (count: 4):
O=[N+]([O-])c1ccc(S(=O)(=O)Nc2ccc([Se][Se]c3ccc(NS(=O)(=O)c4ccc([N+](=O)[O-])cc4)cc3)cc2)cc1    4.6
O=S(=O)(Nc1ccc([Se][Se]c2ccc(NS(=O)(=O)c3ccc(Br)cc3)cc2)cc1)c1ccc(Br)cc1    2
N#Cc1ccc(S(=O)(=O)Nc2ccc([Se][Se]c3ccc(NS(=O)(=O)c4ccc(C#N)cc4)cc3)cc2)cc1    2
O=S(=O)(Nc1ccc([Se][Se]c2ccc(NS(=O)(=O)c3ccccc3F)cc2)cc1)c1ccccc1F    10.7

Switching to the query record.
Query O=S(=O)(Nc1ccc([Se][Se]c2ccc(NS(=O)(=O)c3ccc(C(F)(F)F)cc3)cc2)cc1)c1ccc(C(F)(F)F)cc1 yields selectivity ratio of 9.5
